experiment: Cytotoxicity against human HepDE19 cells assessed as reduction in cell viability incubated for 5 days by CCK-8 assay; format: functional; conditions: HepDE19, 120 h, time 5 day
Can you tell me CC50 for the items I'm about to list?
Entry rule: numbers only, all in µM.

Request: Tell me its CC50 given COC(=O)C1=C(CN2CCN3C(=O)N(c4cccc(C(=O)O)c4)C[C@@H]3C2)NC(c2nccs2)=N[C@H]1c1ccc(F)cc1Cl (single isomer, unassigned) as the entry.
Result: 33

Request: Give recorded CC50. COC(=O)C1=C(CN2CCN3C(=O)N([C@H]4CC[C@H](C(=O)O)CC4)C[C@@H]3C2)NC(c2nccs2)=N[C@H]1c1ccc(F)cc1Cl
Result: 43

Request: Please supply the value of reported CC50 for the item COC(=O)C1=C(CN2CCN3C(=O)COCC3C2)NC(c2nccs2)=N[C@H]1c1ccc(F)cc1Cl (stereo partly specified)
Result: 68

###

experiment: AUClast in male Wistar Han rat at 10 mg/kg,po by LC-MS/MS analysis; format: ADME, organism-based; design: dose 10 mg/kg, route po; conditions: in vivo
measure_name: AUC(0-t) (ng·h/mL)
Entry rule: numbers only, all in ng·h/mL.

Request: Look up AUC(0-t) of CCOC(=O)C1=C(CN2CCN3C(=O)N(CC(C)(C)C(=O)O)C[C@@H]3C2)NC(c2nccs2)=N[C@H]1c1cccc(F)c1C [LINVENCORVIR] and report it.
Result: 1440

###

assay: Induction of CYP3A4 mRNA expression level in human hepatocytes at 10 uM incubated for 24 hrs by q-PCR analysis; type: ADME, cell-based, Hepatocyte
measure_name: Activity (%)
# value in %; strip the unit string

Request: Indicate its recorded Activity; the compound in question is CCOC(=O)C1=C(CN2CCN3C(=O)N(CC(C)(C)C(=O)O)C[C@@H]3C2)NC(c2nccs2)=N[C@H]1c1cccc(F)c1Cl
Result: 1

Request: Output measured Activity for this item: CCOC(=O)C1=C(CN2C[C@H]3CN(C4CC4)C(=O)N3C[C@@H]2C(=O)O)NC(c2nccs2)=N[C@H]1c1ccc(F)cc1Cl
Result: 6

Request: # return recorded Activity for entry COC(=O)C1=C(CN2CCN3C(=O)N(CC4(C(=O)O)CCC4)C[C@@H]3C2)NC(c2nccs2)=N[C@H]1c1ccc(F)cc1Cl
Result: 2.2

###

Consider the following compounds; for each one, report its bioavailability.
test: Oral bioavailability in rat plasma at 3 mg/kg; assay type: ADME, organism-based; settings: plasma
Your answer is read as %, so omit the unit and give the number.

Request: Please look at this compound and report its bioavailability: CCOC(=O)C1=C(CN2CCN3C(=O)N(CC(C)(C)C(=O)O)C[C@@H]3C2)NC(c2nccs2)=N[C@H]1c1cccc(F)c1Cl
Result: 10

Request: Give recorded bioavailability. CCOC(=O)C1=C(CN2CCN3C(=O)N(CC(C)(C)C(=O)O)C[C@@H]3C2)NC(c2nccs2)=N[C@H]1c1cccc(F)c1C
Result: 14

###

tested on: Hepatitis B virus; assay: Antiviral activity against HBV stably transfected in human HepG2.2.15 cells assessed as reduction of HBV DNA replication incubated for 5 days by q-PCR analysis; format: functional, organism-based; conditions: HepG2 2.2.15, 120 h
Please respond with reported EC50 for every item in the list.
Give the value in nM but do not write nM after it.

Request: Identify measured EC50 corresponding to COC(=O)C1=C(CN2CCOC[C@H]2C(=O)O)N=C(c2nccs2)N[C@H]1c1ccc(F)cc1Cl
Result: 3

Request: State, in one line, measured EC50 of COC(=O)C1=C(CN2CCN3C(=O)N([C@H]4CC[C@H](C(=O)O)CC4)C[C@@H]3C2)NC(c2nccs2)=N[C@H]1c1ccc(F)cc1Cl
Result: 9

Request: Return reported EC50. Input compound: CCOC(=O)C1=C(CN2CCN3C(=O)N(c4ccccc4C(=O)O)C[C@@H]3C2)NC(c2nccs2)=N[C@H]1c1ccc(F)cc1Cl (single isomer, unassigned)
Result: 30

Request: Tell me EC50 reported for COC(=O)C1=C(CN2CCN3C(=O)N(CC4(C(=O)O)CCC4)C[C@@H]3C2)NC(c2nccs2)=N[C@H]1c1ccc(F)cc1Cl
Result: 11

Request: # return recorded EC50 for input COC(=O)C1=C(CN2CCN3C(=O)NC[C@@H]3C2)NC(c2nccs2)=N[C@H]1c1ccc(F)cc1Cl
Result: 2

Request: Quickly give me recorded EC50 for CCOC(=O)C1=C(CN2C[C@H]3CN(C(C)(C)C)C(=O)N3C[C@H]2C(=O)O)NC(c2nccs2)=N[C@H]1c1ccc(F)cc1Cl
Result: 62

Request: Could you please provide reported EC50 for COC(=O)C1=C(CN2CCN3C(=O)N(c4ccc(C(=O)O)cc4)C[C@@H]3C2)NC(c2nccs2)=N[C@H]1c1ccc(F)cc1Cl (single isomer, unassigned) ? Thanks!
Result: 2
